Reference for the values: the NIST ThermoML archive (doi:10.1016/j.jct.2016.01.017)

Would you mind telling me the reported activity coefficient of each entry?
experiment: activity coefficient (dimensionless); of the first substance listed, at infinite dilution; xn = mol fraction of the nth substance listed
measurement-conditions: 318.15 K; 100 kPa; Liquid; Chromatography; x1 = 0
Answer field: number only, no words.

Request: Which activity coefficient is reported for this molecule? CCC(C)(C)OC [2-methoxy-2-methylbutane] + CCCC[n+]1ccc(C#N)cc1.O=S(=O)([N-]S(=O)(=O)C(F)(F)F)C(F)(F)F
Result: 4.48

Request: Now consider c1ccccc1 [benzene] + CCCC[n+]1ccc(C#N)cc1.O=S(=O)([N-]S(=O)(=O)C(F)(F)F)C(F)(F)F and answer again.
Result: 1.12

Request: Now consider CCC(C)CC [3-methylpentane] + CCCC[n+]1ccc(C#N)cc1.O=S(=O)([N-]S(=O)(=O)C(F)(F)F)C(F)(F)F and answer again.
Result: 28.4

Request: Now consider C=CCCCC [hex-1-ene] + CCCC[n+]1ccc(C#N)cc1.O=S(=O)([N-]S(=O)(=O)C(F)(F)F)C(F)(F)F and answer again.
Result: 13.8

Request: Now consider C=Cc1ccccc1 [styrene] + CCCC[n+]1ccc(C#N)cc1.O=S(=O)([N-]S(=O)(=O)C(F)(F)F)C(F)(F)F and answer again.
Result: 1.36

Request: Now consider CCCc1ccccc1 [propylbenzene] + CCCC[n+]1ccc(C#N)cc1.O=S(=O)([N-]S(=O)(=O)C(F)(F)F)C(F)(F)F and answer again.
Result: 3.94

Request: Now consider CCCC(C)=O [pentan-2-one] + CCCC[n+]1ccc(C#N)cc1.O=S(=O)([N-]S(=O)(=O)C(F)(F)F)C(F)(F)F and answer again.
Result: 0.739

Request: Now consider CC(C)O [propan-2-ol] + CCCC[n+]1ccc(C#N)cc1.O=S(=O)([N-]S(=O)(=O)C(F)(F)F)C(F)(F)F and answer again.
Result: 2.08

Request: Now consider C#CCCCC [1-hexyne] + CCCC[n+]1ccc(C#N)cc1.O=S(=O)([N-]S(=O)(=O)C(F)(F)F)C(F)(F)F and answer again.
Result: 4.91

Request: Now consider C#CCCCCCC [1-octyne] + CCCC[n+]1ccc(C#N)cc1.O=S(=O)([N-]S(=O)(=O)C(F)(F)F)C(F)(F)F and answer again.
Result: 10.2

Request: Now consider CC(C)=O [acetone] + CCCC[n+]1ccc(C#N)cc1.O=S(=O)([N-]S(=O)(=O)C(F)(F)F)C(F)(F)F and answer again.
Result: 0.403

Request: Now consider CC(C)CC(C)(C)C [2,2,4-trimethylpentane] + CCCC[n+]1ccc(C#N)cc1.O=S(=O)([N-]S(=O)(=O)C(F)(F)F)C(F)(F)F and answer again.
Result: 42.9

Request: Now consider CCCC=O [butanal] + CCCC[n+]1ccc(C#N)cc1.O=S(=O)([N-]S(=O)(=O)C(F)(F)F)C(F)(F)F and answer again.
Result: 0.738

Request: Now consider C#CCCCCC [1-heptyne] + CCCC[n+]1ccc(C#N)cc1.O=S(=O)([N-]S(=O)(=O)C(F)(F)F)C(F)(F)F and answer again.
Result: 7.02

Request: Now consider CCCCCCCCCC [decane] + CCCC[n+]1ccc(C#N)cc1.O=S(=O)([N-]S(=O)(=O)C(F)(F)F)C(F)(F)F and answer again.
Result: 115

Request: Now consider Cc1ccc(C)cc1 [1,4-dimethylbenzene] + CCCC[n+]1ccc(C#N)cc1.O=S(=O)([N-]S(=O)(=O)C(F)(F)F)C(F)(F)F and answer again.
Result: 2.28

###

experiment: activity coefficient (dimensionless); of the first substance listed, at infinite dilution; xn = mol fraction of the nth substance listed
measurement-conditions: 358.15 K; 100 kPa; Liquid; Chromatography; x1 = 0
Would you mind telling me the reported activity coefficient of each entry?

Request: Which activity coefficient is reported for this compound? CCCO [propan-1-ol] + CCCC[n+]1ccc(C#N)cc1.O=S(=O)([N-]S(=O)(=O)C(F)(F)F)C(F)(F)F
Result: 1.79

Request: Now consider CCC(C)(C)C [2,2-dimethylbutane] + CCCC[n+]1ccc(C#N)cc1.O=S(=O)([N-]S(=O)(=O)C(F)(F)F)C(F)(F)F and answer again.
Result: 21.4

Request: Now consider CCOC(C)(C)C [2-ethoxy-2-methylpropane] + CCCC[n+]1ccc(C#N)cc1.O=S(=O)([N-]S(=O)(=O)C(F)(F)F)C(F)(F)F and answer again.
Result: 8.73

Request: Now consider CCCCCCCCCC [decane] + CCCC[n+]1ccc(C#N)cc1.O=S(=O)([N-]S(=O)(=O)C(F)(F)F)C(F)(F)F and answer again.
Result: 88.2

Request: Now consider Cc1ccccc1C [1,2-dimethylbenzene] + CCCC[n+]1ccc(C#N)cc1.O=S(=O)([N-]S(=O)(=O)C(F)(F)F)C(F)(F)F and answer again.
Result: 2.3

Request: Now consider CCC[N+](=O)[O-] [1-nitropropane] + CCCC[n+]1ccc(C#N)cc1.O=S(=O)([N-]S(=O)(=O)C(F)(F)F)C(F)(F)F and answer again.
Result: 0.877

Request: Now consider C1CCCC1 [cyclopentane] + CCCC[n+]1ccc(C#N)cc1.O=S(=O)([N-]S(=O)(=O)C(F)(F)F)C(F)(F)F and answer again.
Result: 8.69

Request: Now consider CCCOCCC [dipropyl ether] + CCCC[n+]1ccc(C#N)cc1.O=S(=O)([N-]S(=O)(=O)C(F)(F)F)C(F)(F)F and answer again.
Result: 8.73

Request: Now consider CC(C)O [propan-2-ol] + CCCC[n+]1ccc(C#N)cc1.O=S(=O)([N-]S(=O)(=O)C(F)(F)F)C(F)(F)F and answer again.
Result: 1.63

Request: Now consider Cc1ccc(C)cc1 [1,4-dimethylbenzene] + CCCC[n+]1ccc(C#N)cc1.O=S(=O)([N-]S(=O)(=O)C(F)(F)F)C(F)(F)F and answer again.
Result: 2.77

Request: Now consider CO [methanol] + CCCC[n+]1ccc(C#N)cc1.O=S(=O)([N-]S(=O)(=O)C(F)(F)F)C(F)(F)F and answer again.
Result: 1.08

Request: Now consider CCC(=O)CC [pentan-3-one] + CCCC[n+]1ccc(C#N)cc1.O=S(=O)([N-]S(=O)(=O)C(F)(F)F)C(F)(F)F and answer again.
Result: 0.936

###

experiment: activity coefficient (dimensionless); of the first substance listed, at infinite dilution; xn = mol fraction of the nth substance listed
measurement-conditions: 338.15 K; 100 kPa; Liquid; Chromatography; x1 = 0
Field 'label' (enum: 1 (yes) / 0 (no)). Set to 1 (yes) when activity coefficient is strictly under 2; else 0 (no).

Request: Field: below-cutoff. Rule: recorded activity coefficient strictly less than 2. Subject: CCC(C)CC [3-methylpentane] + CCCC[n+]1ccc(C#N)cc1.O=S(=O)([N-]S(=O)(=O)C(F)(F)F)C(F)(F)F
Result: 0 (no)

Request: Now consider CCCC(=O)OC [methyl butanoate] + CCCC[n+]1ccc(C#N)cc1.O=S(=O)([N-]S(=O)(=O)C(F)(F)F)C(F)(F)F and answer again.
Result: 1 (yes)

Request: Now consider CCCCCCCCC [nonane] + CCCC[n+]1ccc(C#N)cc1.O=S(=O)([N-]S(=O)(=O)C(F)(F)F)C(F)(F)F and answer again.
Result: 0 (no)

Request: Now consider C=CCCCC [hex-1-ene] + CCCC[n+]1ccc(C#N)cc1.O=S(=O)([N-]S(=O)(=O)C(F)(F)F)C(F)(F)F and answer again.
Result: 0 (no)

Request: Now consider CC(C)=O [acetone] + CCCC[n+]1ccc(C#N)cc1.O=S(=O)([N-]S(=O)(=O)C(F)(F)F)C(F)(F)F and answer again.
Result: 1 (yes)

Request: Now consider C#CCCCCCC [1-octyne] + CCCC[n+]1ccc(C#N)cc1.O=S(=O)([N-]S(=O)(=O)C(F)(F)F)C(F)(F)F and answer again.
Result: 0 (no)

Request: Now consider CC(C)OC(C)C [diisopropyl ether] + CCCC[n+]1ccc(C#N)cc1.O=S(=O)([N-]S(=O)(=O)C(F)(F)F)C(F)(F)F and answer again.
Result: 0 (no)

Request: Now consider Cc1cccc(C)c1 [1,3-dimethylbenzene] + CCCC[n+]1ccc(C#N)cc1.O=S(=O)([N-]S(=O)(=O)C(F)(F)F)C(F)(F)F and answer again.
Result: 0 (no)

Request: Now consider CC#N [acetonitrile] + CCCC[n+]1ccc(C#N)cc1.O=S(=O)([N-]S(=O)(=O)C(F)(F)F)C(F)(F)F and answer again.
Result: 1 (yes)

Request: Now consider CCC(=O)CC [pentan-3-one] + CCCC[n+]1ccc(C#N)cc1.O=S(=O)([N-]S(=O)(=O)C(F)(F)F)C(F)(F)F and answer again.
Result: 1 (yes)

Request: Now consider C#CCCC [1-pentyne] + CCCC[n+]1ccc(C#N)cc1.O=S(=O)([N-]S(=O)(=O)C(F)(F)F)C(F)(F)F and answer again.
Result: 0 (no)

Request: Now consider CCCCCC [hexane] + CCCC[n+]1ccc(C#N)cc1.O=S(=O)([N-]S(=O)(=O)C(F)(F)F)C(F)(F)F and answer again.
Result: 0 (no)

Request: Now consider CC(C)CO [2-methyl-1-propanol] + CCCC[n+]1ccc(C#N)cc1.O=S(=O)([N-]S(=O)(=O)C(F)(F)F)C(F)(F)F and answer again.
Result: 0 (no)

Request: Now consider C=CCCC [1-pentene] + CCCC[n+]1ccc(C#N)cc1.O=S(=O)([N-]S(=O)(=O)C(F)(F)F)C(F)(F)F and answer again.
Result: 0 (no)

Request: Now consider CC(C)(C)O [2-methylpropan-2-ol] + CCCC[n+]1ccc(C#N)cc1.O=S(=O)([N-]S(=O)(=O)C(F)(F)F)C(F)(F)F and answer again.
Result: 1 (yes)

Request: Now consider CO [methanol] + CCCC[n+]1ccc(C#N)cc1.O=S(=O)([N-]S(=O)(=O)C(F)(F)F)C(F)(F)F and answer again.
Result: 1 (yes)

Request: Now consider CC(C)c1ccccc1 [isopropylbenzene] + CCCC[n+]1ccc(C#N)cc1.O=S(=O)([N-]S(=O)(=O)C(F)(F)F)C(F)(F)F and answer again.
Result: 0 (no)

Request: Now consider CCOC(C)(C)C [2-ethoxy-2-methylpropane] + CCCC[n+]1ccc(C#N)cc1.O=S(=O)([N-]S(=O)(=O)C(F)(F)F)C(F)(F)F and answer again.
Result: 0 (no)

Request: Now consider C=Cc1ccccc1 [styrene] + CCCC[n+]1ccc(C#N)cc1.O=S(=O)([N-]S(=O)(=O)C(F)(F)F)C(F)(F)F and answer again.
Result: 1 (yes)
